The measurements presented in this section are drawn from paper PMC6376317.

PROTOCOL_DESCRIPTION: In vivo pharmacokinetics in CD-1 mice
Set-up: species or system mouse
SETTINGS: oral dose 5 (mg/kg); defined as [Cmax(free)]/Cell IC50; male CD-1 mice
The entries below come with measured Fold exposure relative to cell IC50 values attached.
OUTCOME_MEASURE: Fold exposure relative to cell IC50

Cn1cc(Cn2c(=O)c3cc(S(=O)(=O)NC4(C)CC4)ccc3n(Cc3ccn(C)n3)c2=O)cn1	0.96
Cn1cc(Cn2c(=O)c3cc(S(=O)(=O)NC4(CF)CC4)ccc3n(Cc3ccn(C)n3)c2=O)cn1	0.18
CCn1c(=O)n(Cc2cnn(C)c2)c(=O)c2cc(S(=O)(=O)NC3(CF)CC3)ccc21	15
CCn1c(=O)n(Cc2cc(C)on2)c(=O)c2cc(S(=O)(=O)NC3(CF)CC3)ccc21	0.28
Cn1cc(Cn2c(=O)c3cc(S(=O)(=O)NC4(CF)CC4)ccc3n(C)c2=O)cn1	61

* * *

The entries below come with measured pIC50 values attached.
TARGET_OR_TEST_SYSTEM: PARG (Homo sapiens)
Sequence (Q86W56 whole entry, species assumed): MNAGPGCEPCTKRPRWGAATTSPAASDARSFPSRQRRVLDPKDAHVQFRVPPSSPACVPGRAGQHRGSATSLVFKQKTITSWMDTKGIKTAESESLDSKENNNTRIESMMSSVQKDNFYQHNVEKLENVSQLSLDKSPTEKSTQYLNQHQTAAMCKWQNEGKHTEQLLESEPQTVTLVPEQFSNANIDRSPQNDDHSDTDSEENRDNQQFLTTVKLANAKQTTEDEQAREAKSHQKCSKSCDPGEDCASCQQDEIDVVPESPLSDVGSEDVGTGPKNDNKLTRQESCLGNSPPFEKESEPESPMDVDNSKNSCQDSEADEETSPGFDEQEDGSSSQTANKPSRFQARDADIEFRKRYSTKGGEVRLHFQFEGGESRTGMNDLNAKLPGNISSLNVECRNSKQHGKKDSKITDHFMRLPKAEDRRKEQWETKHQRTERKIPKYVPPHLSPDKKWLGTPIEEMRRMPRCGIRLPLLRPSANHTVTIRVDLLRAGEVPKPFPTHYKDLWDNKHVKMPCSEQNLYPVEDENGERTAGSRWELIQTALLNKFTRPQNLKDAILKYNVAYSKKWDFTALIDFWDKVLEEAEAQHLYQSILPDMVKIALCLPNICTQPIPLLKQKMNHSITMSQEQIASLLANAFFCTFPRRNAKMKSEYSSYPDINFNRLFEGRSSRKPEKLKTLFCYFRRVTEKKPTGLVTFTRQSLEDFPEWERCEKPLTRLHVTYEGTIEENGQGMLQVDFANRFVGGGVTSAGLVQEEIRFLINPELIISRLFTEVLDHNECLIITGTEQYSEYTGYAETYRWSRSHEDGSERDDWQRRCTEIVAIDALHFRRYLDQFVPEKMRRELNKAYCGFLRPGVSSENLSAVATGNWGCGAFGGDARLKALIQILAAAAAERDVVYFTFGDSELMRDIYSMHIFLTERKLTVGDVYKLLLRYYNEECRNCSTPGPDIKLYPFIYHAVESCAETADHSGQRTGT
Assay type: cell-based
SETTINGS: geometric mean of at least two independent determinations; read-out: PARG Cell Assay
pIC50: −log10 of the molar value.
OUTCOME_MEASURE: pIC50

Cn1cc(Cn2c(=O)c3cc(S(=O)(=O)NC4(C(F)(F)F)CC4)ccc3n(Cc3ccn(C)n3)c2=O)cn1	5.39
Cn1cc(Cn2c(=O)c3cc(S(=O)(=O)NC4(CF)CC4)ccc3n(Cc3ccn(C)n3)c2=O)cn1	6.77
Cn1cc(Cn2c(=O)c3cc(S(=O)(=O)NC4(C)CC4)ccc3n(Cc3ccn(C)n3)c2=O)cn1	7.05
Cn1cc(Cn2c(=O)c3cc(S(=O)(=O)NC4(C(F)F)CC4)ccc3n(Cc3ccn(C)n3)c2=O)cn1	5.90
CCn1c(=O)n(Cc2cc(C)on2)c(=O)c2cc(S(=O)(=O)NC3(CF)CC3)ccc21	5.18
[2H]C([2H])([2H])C1(NS(=O)(=O)c2ccc3c(c2)c(=O)n(Cc2cnn(C)c2)c(=O)n3Cc2ccn(C)n2)CC1	7.15

* * *

PROTOCOL_DESCRIPTION: Human liver microsomal stability
Type: in vitro ADME
SETTINGS: liver microsomes, read-out: Human Microsomes T1/2
Mark True for reported half-life of 1 h or greater; mark False for anything smaller.

Cn1cc(Cn2c(=O)c3cc(S(=O)(=O)NC4(C(F)F)CC4)ccc3n(Cc3ccn(C)n3)c2=O)cn1	True
[2H]C([2H])([2H])C1(NS(=O)(=O)c2ccc3c(c2)c(=O)n(Cc2cnn(C)c2)c(=O)n3Cc2ccn(C)n2)CC1	False
Cn1cc(Cn2c(=O)c3cc(S(=O)(=O)NC4(C)CC4)ccc3n(Cc3ccn(C)n3)c2=O)cn1	False
Cn1cc(Cn2c(=O)c3cc(S(=O)(=O)NC4(C(F)(F)F)CC4)ccc3n(Cc3ccn(C)n3)c2=O)cn1	True
Cn1cc(Cn2c(=O)c3cc(S(=O)(=O)NC4(CF)CC4)ccc3n(Cc3ccn(C)n3)c2=O)cn1	True

* * *

TARGET_OR_TEST_SYSTEM: PARG (Homo sapiens)
Type: biochemical
SETTINGS: geometric mean of at least two independent determinations; read-out: PARG Enzyme Activity
pIC50: −log10 of the molar value.
Mark MET for reported pIC50 of 6 or greater; mark NOT MET for anything smaller.

[2H]C([2H])([2H])C1(NS(=O)(=O)c2ccc3c(c2)c(=O)n(Cc2cnn(C)c2)c(=O)n3Cc2ccn(C)n2)CC1	MET
Cn1cc(Cn2c(=O)c3cc(S(=O)(=O)NC4(C)CC4)ccc3n(Cc3ccn(C)n3)c2=O)cn1	MET
Cn1cc(Cn2c(=O)c3cc(S(=O)(=O)NC4(CF)CC4)ccc3n(Cc3ccn(C)n3)c2=O)cn1	MET
Cn1cc(Cn2c(=O)c3cc(S(=O)(=O)NC4(C(F)(F)F)CC4)ccc3n(Cc3ccn(C)n3)c2=O)cn1	NOT MET
Cn1cc(Cn2c(=O)c3cc(S(=O)(=O)NC4(C(F)F)CC4)ccc3n(Cc3ccn(C)n3)c2=O)cn1	MET

* * *

Tested on: CD-1 mice
PROTOCOL_DESCRIPTION: In vivo tolerability / toxicity observation during PK studies
Parameters: species or system mouse
SETTINGS: oral dose 5 (mg/kg); mice
OUTCOME_MEASURE: Toxicity Observed

CCn1c(=O)n(Cc2cnn(C)c2)c(=O)c2cc(S(=O)(=O)NC3(C)CC3)ccc21 [Compound 9]	No
Cn1cc(Cn2c(=O)c3cc(S(=O)(=O)NC4(CF)CC4)ccc3n(C)c2=O)cn1 [Compound 12]	Ataxia
CCn1c(=O)n(Cc2cc(C)on2)c(=O)c2cc(S(=O)(=O)NC3(CF)CC3)ccc21 [Compound 13]	Ataxia
Cn1cc(Cn2c(=O)c3cc(S(=O)(=O)NC4(CF)CC4)ccc3n(Cc3ccn(C)n3)c2=O)cn1 [Compound 5]	No
Cn1cc(Cn2c(=O)c3cc(S(=O)(=O)NC4(C)CC4)ccc3n(C)c2=O)cn1 [Compound 11]	No
Cn1cc(Cn2c(=O)c3cc(S(=O)(=O)NC4(C)CC4)ccc3n(Cc3ccn(C)n3)c2=O)cn1 [Compound 1]	No

* * *

The entries below come with measured IC50 values attached.
TARGET_OR_TEST_SYSTEM: PARG (Homo sapiens)
Assay type: biochemical
SETTINGS: read-out: PARG Enzyme Activity
OUTCOME_MEASURE: IC50 (nM)

CCn1c(=O)n(Cc2cnn(C)c2)c(=O)c2cc(S(=O)(=O)NC3(CF)CC3)ccc21 [Compound 10]	100
Cn1cc(Cn2c(=O)c3cc(S(=O)(=O)NC4(CF)CC4)ccc3n(C)c2=O)cn1 [Compound 12]	630
